Reported pEC50 values for the following binders.
- Tested System: T1, Cynomolgus macaques TSLP recombinant protein (Cynomolgus macaques, UniProt Q969D9 29-159 (human entry), limits assumed, biotinylated in the blocking assays (sites not given))
- T1 construct: also called cyTSLP; biotinylated Cynomolgus macaques TSLP protein
- T1 chain: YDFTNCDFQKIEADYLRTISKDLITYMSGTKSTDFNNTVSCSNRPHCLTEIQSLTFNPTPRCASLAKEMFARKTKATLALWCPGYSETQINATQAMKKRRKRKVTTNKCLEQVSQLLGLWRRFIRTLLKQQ
- Experiment Notes: ELISA on coated cynomolgus TSLP;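 further: Read-out was TMB colorimetric signal measured as absorbance at 450 nm after 10 min development at 37 °C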
pEC50 here is simply -log10 of the concentration when that concentration is written in mol/L.

Binder: Ab18 (antibody, V domains shown, Humanized; also called h71G4VHv3/h39G5VKv1) VH: QVQLVQSGAEVKKPGSSVKVSCKASGYTFTDYWMHWVRQAPGQGLEWMGTIDNSDSDTTYNQKFQGRVTMTRDTSTSTVYMELSSLRSEDTAVYYCARSVDGYLDYWGQGTLVTVSS VL: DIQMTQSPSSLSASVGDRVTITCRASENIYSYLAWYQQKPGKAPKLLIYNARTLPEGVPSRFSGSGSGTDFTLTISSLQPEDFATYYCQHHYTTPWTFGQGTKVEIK
pEC50: 7.75

Binder: Ab3 (antibody, V domains shown, Humanized; also called h39G5VHv3/h39G5VKv1) VH: EVQLVQSGAEVKKPGESLRISCKASGYSFISYWIHWVRQMPGKGLEWMGIIDPSDSDTSLNQSFQGHVTLSVDKSSTTAYLQWSSLKASDTAMYYCARSLDGYYDYWGQGTLVTVSS VL: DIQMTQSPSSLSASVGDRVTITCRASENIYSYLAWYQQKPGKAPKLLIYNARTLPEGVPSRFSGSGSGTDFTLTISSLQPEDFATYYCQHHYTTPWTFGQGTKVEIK
pEC50: 8.65

Binder: Ab21 (antibody, V domains shown, Humanized; also called h71G4VHv3/h71G4VKv1) VH: QVQLVQSGAEVKKPGSSVKVSCKASGYTFTDYWMHWVRQAPGQGLEWMGTIDNSDSDTTYNQKFQGRVTMTRDTSTSTVYMELSSLRSEDTAVYYCARSVDGYLDYWGQGTLVTVSS VL: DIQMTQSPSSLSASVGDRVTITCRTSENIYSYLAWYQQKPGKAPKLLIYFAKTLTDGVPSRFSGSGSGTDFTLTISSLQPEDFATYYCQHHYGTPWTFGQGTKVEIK
pEC50: 9.27

Binder: Ab17 (antibody, V domains shown, Humanized; also called h71G4VHv2/h39G5VKv1) VH: QVQLVQSGAEVKKPGSSVKVSCKASGYTFTDYWMHWVRQAPGQGLEWMGTIDNSDSDTTYNQKFQGRVTLTVDTSTSTAYMELSSLRSEDTAVYYCARSVDGYLDYWGQGTLVTVSS VL: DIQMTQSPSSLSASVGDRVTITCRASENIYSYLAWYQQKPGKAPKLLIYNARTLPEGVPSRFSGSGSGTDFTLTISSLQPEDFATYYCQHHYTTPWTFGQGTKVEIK
pEC50: 8.35

Please look at the following binder next.
Would you kindly share the measured pEC50 for Ab25 (antibody, V domains shown, Humanized; also called h39G5VHv6/h71G4VKv1) VH: QVQLVQSGAEVKKPGSSVKVSCKASGYTFTDYWMHWVRQAPGQGLEWMGTIDNSDSDTSLNQKFQGRVTLTVDTSTSTAYMELSSLRSEDTAVYYCARSLDGYYDYWGQGTLVTVSS VL: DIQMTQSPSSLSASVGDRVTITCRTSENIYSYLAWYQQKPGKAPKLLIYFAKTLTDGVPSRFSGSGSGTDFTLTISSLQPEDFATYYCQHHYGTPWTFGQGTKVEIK ?
8.94

// provenance: patent US20230029835A1
